%Inh by entry:
- System: RIPK1
- REPORTED CONDITIONS: concentration: 1 μM, replicates: in singlicate; n = 1;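 note: KINOMEscan kinase panel screen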

| COMPOUND | QUANTITY UNIT | %Inh |
| --- | --- | --- |
| CC(C)(C)OC(=O)NC1CCCN(c2cc(-c3ccc4c(N)n[nH]c4c3)nc(N)n2)C1 (stereo not shown) | % | 0 |
| Clc1ccc(-c2cc(-c3c[nH]nc3-c3ccccn3)ccn2)cc1 | % | 0 |
| CC(C)(C)c1ccc(-n2cnc3c(N)ncnc32)cc1 | % | 1 |
| Nc1nc(-c2ccc3c(N)n[nH]c3c2)cc(N2CCC[C@@H](C(=O)Nc3ccccc3)C2)n1.O=C(O)C(F)(F)F.O=C(O)C(F)(F)F | % | 10 |
| COc1ccc(Nc2nccc(N3CCC(NC(=O)Nc4ccc5c(c4)OCO5)C3)n2)cc1 (stereo not shown) | % | 0 |
| Fc1cccc(COc2ccc(Nc3ncnc4nn5ccccc5c34)cc2Cl)c1 | % | 0 |
| Cc1cccc(-c2nc(Nc3ccc4[nH]nnc4c3)c3ccccc3n2)n1 | % | 0 |
| Cc1ccc(NC(=O)c2cccc(C#N)c2)cc1-c1ccc(C(=O)Nc2ccncc2)cc1 | % | 2 |
| Clc1cc(Nc2ncnc3cc[nH]c23)ccc1OCc1ccccn1 | % | 0 |
| CCc1nc(-c2cccc(N(C)S(=O)(=O)c3ccccc3)c2)c(-c2ccnc(Nc3ccc(N4CCN(C(C)=O)CC4)nc3)n2)s1 | % | 0 |
| CCC(CC)(CC)n1cnc2c(N)ncnc21 | % | 0 |
| Cn1ccc2ncnc(Nc3ccc(Oc4cccc(Cl)c4)c(Cl)c3)c21 | % | 0 |
| CCCc1ccc(S(=O)(=O)NC2CCN(c3ccnc(Nc4ccc(OC)cc4)n3)C2)cc1 (stereo not shown) | % | 0 |

---

- Test system: BRAF
- REPORTED CONDITIONS: concentration: 1 μM, replicates: in singlicate; n = 1
%Inh by entry:
READOUT KIND: %Inh (%)

| COMPOUND | TARGET SYSTEM | MEASURED VALUE |
| --- | --- | --- |
| Clc1ccc(-c2cc(-c3c[nH]nc3-c3ccccn3)ccn2)cc1 | BRAF | 0 |
| COc1ccc(-c2oc3ncnc(N)c3c2-c2ccc(OC)cc2)cc1 | BRAF | 38 |
| C[C@@H]1CCN(C(=O)CO)C[C@@H]1N(C)c1ncnc2[nH]ccc12 | BRAF | 0 |
| N#Cc1ccc(Oc2ccc(Nc3ncnc4cc[nH]c34)cc2Cl)cc1 | BRAF | 0 |
| Cl.Fc1ccccc1COc1ccc(Nc2ncnc3ccc(-c4nnc(C(F)(F)F)o4)cc23)cc1Cl | BRAF | 0 |
| Clc1cc(Nc2ncnc3cc[nH]c23)ccc1OCc1ccccn1 | BRAF | 0 |
| FC(F)(F)c1cc(Nc2nccc(-c3c(-c4ccc(Cl)cc4)nn4ncccc34)n2)ccc1Cl | BRAF | 0 |
| O=C(Nc1n[nH]c2nc(-c3ccco3)c(Br)cc12)c1ccc(CN2CCCC2)cc1.O=C(O)[C@H](O)[C@@H](O)C(=O)O | BRAF | 0 |
| CCCc1ccc(S(=O)(=O)NC2CCN(c3ccnc(Nc4ccc(OC)cc4)n3)C2)cc1 (stereo not shown) | BRAF | 0 |
| C[C@H]1CC[C@@H](C(=O)Nc2ccccc2)CN1c1cc(-c2ccc3c(N)n[nH]c3c2)nc(N)n1 | BRAF | 0 |
| Fc1ccc(-c2ncn(CCCNCc3ccccc3)c2-c2ccncc2)cc1 | BRAF | 16 |
| Nc1nc(-c2cccnc2)c(-c2ccnc3ccccc23)s1 | BRAF | 0 |
| COC(=O)c1cccc(NC(=O)NCCNc2ccnc(Nc3ccc(F)cc3)n2)c1 | BRAF | 0 |
| O=C(c1ccc(-c2cc(-c3c[nH]nc3-c3ccccn3)ccn2)cc1)N1CCCC1 | BRAF | 0 |
| Nc1nc(-c2ccc3c(N)n[nH]c3c2)cc(N2CCC[C@@H](C(=O)Nc3ccccc3)C2)n1.O=C(O)C(F)(F)F.O=C(O)C(F)(F)F | BRAF | 5 |
| Cn1ccc2ncnc(Oc3ccc(NC(=O)Nc4cccnc4)c(Cl)c3)c21 | BRAF | 0 |
| COc1ccc(NC(=O)Nc2ccc(C)c(-c3ccc(C(=O)Nc4ccncc4)cc3)c2)cc1 | BRAF | 0 |
| c1ccc(-c2ccc3c(-c4ccnc(Nc5ccc6c(c5)OCCO6)n4)cnn3n2)cc1 | BRAF | 0 |
| Cn1ccc2ncnc(Nc3ccc(Oc4cccc(Cl)c4)c(Cl)c3)c21 | BRAF | 0 |

---

- System: MELK
- REPORTED CONDITIONS: concentration: 1 μM, replicates: in singlicate; n = 1
READOUT KIND: %Inh (%)

| COMPOUND | MEASURED VALUE |
| --- | --- |
| CC(C)N1CCC(n2cnc(-c3ccc(F)cc3)c2-c2ccnc(N)n2)CC1 [SB-223132] | 8 |
| CCCc1ccc(S(=O)(=O)NC2CCN(c3ccnc(Nc4ccc(OC)cc4)n3)C2)cc1 (stereo not shown) [GSK1379737] | 0 |
| COC(=O)c1c(-c2ccccc2)c2cc(Cl)ccc2c(=O)n1Cc1ccc(S(C)(=O)=O)cc1 | 0 |
| Cc1cccc(-c2nc(Nc3ccc4[nH]nnc4c3)c3ccccc3n2)n1 [GW867587] | 0 |
| Cl.O=S(=O)(c1cccc(F)c1)c1ccc(Nc2ncnc3cc(Br)sc23)cc1Cl [GSK306886] | 0 |
| Cn1cc(-c2ccc3c(c2)CCN3C(=O)Cc2cccc(C(F)(F)F)c2)c2c(N)ncnc21 [GSK2606414] | 8 |
| FC(F)(F)c1ccc(-c2cc(-c3c[nH]nc3-c3ccccn3)ccn2)cc1 [GW599550] | 0 |
| Cc1ccc(C)c(NC(=O)NCCNc2ccnc(Nc3ccc(F)cc3)n2)c1 [GSK1379878] | 4 |
| CS(=O)(=O)CCNCc1nc(-c2ccc3ncnc(Nc4ccc(OCc5cccc(F)c5)c(Cl)c4)c3c2)cs1.Cl [GW583340] | 0 |
| COc1ccc(NC(=O)Nc2ccc(C)c(-c3ccc(C(=O)Nc4ccncc4)cc3)c2)cc1 [GSK1398475] | 6 |

---

- System: MRCKA
- REPORTED CONDITIONS: concentration: 1 μM, replicates: in singlicate; n = 1
READOUT KIND: %Inh

| MOLECULE | MEASURED VALUE |
| --- | --- |
| COc1ccc(NC(=O)c2ccc(-c3cc(-c4nnc(C)o4)ccc3C)cc2)cc1 | 0% |
| COC(=O)c1cccc(NC(=O)NCCNc2ccnc(Nc3ccc(F)cc3)n2)c1 | 0% |
| CC(C)(C)c1ccc(-n2cnc3c(N)ncnc32)cc1 | 0% |
| FC(F)(F)c1ccc(-c2nn3ncccc3c2-c2ccnc(Nc3cccc(C(F)(F)F)c3)n2)cc1 | 31% |
| O=C(Nc1ccccc1)Nc1ccc(Oc2ccc3nccn3n2)cc1 | 0% |
| Cc1ccc(O)cc1Nc1cc(C(F)(F)F)nc2ccc(-c3ccncc3)cc12 | 0% |
| Fc1cccc(COc2ccc(Nc3ncnc4sc(-c5ccc[nH]5)cc34)cc2Cl)c1 | 23% |
| Nc1nc(-c2ccc3c(N)n[nH]c3c2)cc(N2CCCCC2)n1 | 0% |
| O=C(NCCCN1CCCC1=O)c1cnc(NCc2cc(Cl)ccc2Cl)nc1NC1CCNCC1 | 0% |
| Cc1ccc(NC(=O)c2cccc(C#N)c2)cc1-c1ccc(C(=O)Nc2ccncc2)cc1 | 3% |
| COc1ccc(-c2oc3ncnc(N)c3c2-c2ccc(OC)cc2)cc1 | 0% |
| N#Cc1ccc(Oc2ccc(Nc3ncnc4cc[nH]c34)cc2Cl)cc1 | 12% |
| Clc1cccc(-c2nc(Nc3ccncc3)c3ccccc3n2)c1 | 3% |
| Nc1nc(-c2ccccn2)c(-c2ccnc3ccccc23)s1 | 8% |
| Cn1cc(-c2ccc3c(c2)CCN3C(=O)Cc2cccc(C(F)(F)F)c2)c2c(N)ncnc21 | 0% |
| COc1ccc(Nc2nccc(N3CCC(NC(=O)c4cccc(NC(C)=O)c4)C3)n2)cc1 (stereo not shown) | 0% |
| CCCc1ccc(S(=O)(=O)NC2CCN(c3ccnc(Nc4ccc(OC)cc4)n3)C2)cc1 (stereo not shown) | 10% |
| Nc1nccc2scc(-c3ccc4c(c3)CCN4C(=O)Cc3cc(F)ccc3F)c12 | 15% |
| Cn1ccc2ncnc(Oc3ccc(NC(=O)Nc4cccnc4)c(Cl)c3)c21 | 0% |

---

- Tested on: RET
- REPORTED CONDITIONS: concentration: 1 μM, replicates: in singlicate; n = 1
READOUT KIND: %Inh (%)

| MOLECULE | TARGET SYSTEM | MEASURED VALUE |
| --- | --- | --- |
| COc1ccc(NC(=O)Nc2ccc(C)c(-c3ccc(C(=O)Nc4ccncc4)cc3)c2)cc1 [GSK1398475] | RET | 0 |
| Fc1cccc(COc2ccc(Nc3ncnc4sc(-c5ccc[nH]5)cc34)cc2Cl)c1 [GW707818] | RET | 14 |
| CNc1nccc(-c2c(-c3ccc(F)cc3)ncn2C2CCN(C)CC2)n1 [SB-222903] | RET | 0 |
| Nc1n[nH]c2nnc(-c3ccccc3)cc12 [SB-517389] | RET | 88 |
| Fc1cccc(COc2ccc(Nc3ncnc4cc[nH]c34)cc2Cl)c1 | RET | 5 |
| CSc1nn2c(=O)cc(N3CCOCC3)nc2n1Cc1cccc(Cl)c1Cl [GSK2347225] | RET | 11 |
| O=C(NCCCN1CCCC1=O)c1cnc(NCc2cc(Cl)ccc2Cl)nc1NC1CCNCC1 | RET | 8 |
| O=C(Nc1n[nH]c2nc(-c3ccco3)c(Br)cc12)c1ccc(CN2CCCC2)cc1.O=C(O)[C@H](O)[C@@H](O)C(=O)O [SB-742352] | RET | 28 |
| Cl.Cl.c1ccc(-c2cc3ccncc3cc2OC2CCNCC2)cc1 [GSK1122999] | RET | 28 |
